molecular target: HLA-B*27:05; assay: IEDB peptide-MHC binding, purified MHC/direct/fluorescence; filed as Kd, often an IC50 or EC50 that approximates it; bounds were set here for any values at or beyond the usual limits of such assays; details: source organism: Brucella abortus
assay.endpoint: pKd
Numbers only, as −log10 of the molar value.

Req: // lookup pKd for KLYERNTAF
Resp: 6.49

----------
molecular target: HLA-B*44:02; experiment: IEDB peptide-MHC binding, purified MHC/competitive/radioactivity; filed as Kd, often an IC50 or EC50 that approximates it; bounds were set here for any values at or beyond the usual limits of such assays; conditions: source organism: Dengue virus 3 Martinique/1243/1999
Could you please report measured Kd for the items listed next?
Hey, just the number and the unit after it is fine.

I need Kd for every entry listed below, if you could help.
1. WENVPYLGK
2. ADMGCVINW

Resp:
1. 8.42 µM
2. 0.0928 µM

----------
molecular target: HLA-A*31:01; test: IEDB peptide-MHC binding, purified MHC/competitive/radioactivity; filed as Kd, often an IC50 or EC50 that approximates it; bounds were set here for any values at or beyond the usual limits of such assays; settings: source organism: Mammarenavirus choriomeningitidis
assay.endpoint: pKd
Numbers only, as −log10 of the molar value.

Req: // lookup pKd for SAFNKKHFDH
Resp: 4.90

----------
biological target: HLA-A*02:01; experiment: IEDB peptide-MHC binding, purified MHC/competitive/fluorescence; bounds were set here for any values at or beyond the usual limits of such assays; conditions: source organism: Variola virus
assay.endpoint: IC50 (nM)
Numbers only, in nM.

Req: // lookup IC50 for LSLPRIALV
Resp: 617

----------
target: HLA-B*18:01; assay: IEDB peptide-MHC binding, purified MHC/competitive/fluorescence; filed as Kd, often an IC50 or EC50 that approximates it; bounds were set here for any values at or beyond the usual limits of such assays; conditions: source organism: Mycobacterium tuberculosis variant bovis BCG str. Pasteur 1173P2
assay.endpoint: Kd

Req: Entry KPIPHRTVL , system HLA-B*18:01: what Kd was measured?
Resp: ≥ 20 µM

----------
Could you please report measured pKd for the items listed next?
biological target: HLA-A*02:01; assay: IEDB peptide-MHC binding, purified MHC/direct/fluorescence; filed as Kd, often an IC50 or EC50 that approximates it; bounds were set here for any values at or beyond the usual limits of such assays; conditions: source organism: Rickettsia prowazekii
pKd: −log10 of the molar value.

# seq, tested.on, pKd
records = [
    ("QFAGGSFDF", "HLA-A*02:01", "≤ 4.70"),
]

Okay, next one:
Req: // lookup pKd for IYSAEFKNY
Resp: ≤ 4.70

----------
target: HLA-A*69:01; assay: IEDB peptide-MHC binding, purified MHC/competitive/fluorescence; filed as Kd, often an IC50 or EC50 that approximates it; bounds were set here for any values at or beyond the usual limits of such assays; settings: source organism: Orthohantavirus negraense
assay.endpoint: Kd

Req: // lookup Kd for SLLFREVWK
Resp: ≥ 20 µM

----------
target: HLA-A*02:01; test: IEDB peptide-MHC binding, purified MHC/competitive/fluorescence; filed as Kd, often an IC50 or EC50 that approximates it; bounds were set here for any values at or beyond the usual limits of such assays; conditions: source organism: Escherichia coli B171
assay.endpoint: Kd

Req: // lookup Kd for QTNLYNLLY
Resp: 4 µM
